Below, each entry is listed alongside its reported GI50.
- Test system: IGROV-1
- Test: NCI tumour cell line growth inhibition, 48 h
Active and inactive are the calls of the source. No stated cut-off is given here; in the data, active = GI50 up to about 1.1 µM and inactive = higher.

| Compound | Study system | GI50 |
| --- | --- | --- |
| C=CCC(NCc1ccccc1)[C@H](OCc1ccccc1)[C@@H]1COC(C)(C)O1 (stereo not given in full) | IGROV-1 | 35.8 µM (inactive) |
| COC(=O)C(Cc1nc2ccccc2nc1O)C(NO)C(=O)Nc1c(Cl)cc([N+](=O)[O-])cc1Cl (stereo not given) | IGROV-1 | 40.8 µM (inactive) |
| O=C(NCCN1CCCC1)c1cn2c(ccc3sc4ccccc4c(=O)c32)n1 | IGROV-1 | 11.7 µM (inactive) |
| COC(CN1C(=O)c2cccc3cccc(c23)C1=O)OC | IGROV-1 | > 100 µM (inactive) |
| Cc1occc1C(=S)Nc1ccc(Cl)c(C(=O)OC(C)C2CC2)c1 (stereo not given) | IGROV-1 | 16 µM (inactive) |
